target: human DR5 (human); test: SPR (BIAcore X100), human DR5 on CM5 chip, IgG injected, 1:1 Langmuir model
Some binders, each annotated with its measured koff.
// return numeric value only (unit: s⁻¹, not printed)

Field: example entries. Status: answers known.
{"columns": ["Binder", "Result Number"],
 "data": [
  ["DA20 (antibody, V domains shown) VH: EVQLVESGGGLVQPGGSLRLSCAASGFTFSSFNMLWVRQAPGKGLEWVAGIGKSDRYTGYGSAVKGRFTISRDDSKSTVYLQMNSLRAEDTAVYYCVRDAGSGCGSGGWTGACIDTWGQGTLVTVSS VL: DIQMTQSPSSLSASVGDRVTITCSGGDSYAGSYYYGWYQQKPGKAPKTLIYNNNNRPSGVPSRFSGSRSGTDFTLTISSLQPEDFATYYCGSRDSAGMGAFGQGTKVEIK", "1.21e-05"],
  ["DA28 (antibody, V domains shown) VH: AVTLDESGGGLQTPGGGLSLVCKGSGFTFSSFNMLWVRQAPGKGLEWVAGIGKSDRYTGYGSAVKGRATISRDDGQSTARLQLNNLRAEDTGTYYCVKDAGSGCGSGGWTGACIDTWGHGTEVIVSS VL: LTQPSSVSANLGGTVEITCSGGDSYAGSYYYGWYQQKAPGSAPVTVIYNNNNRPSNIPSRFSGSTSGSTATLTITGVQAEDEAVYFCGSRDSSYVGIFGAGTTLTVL", "4.52e-06"],
  ["DA15 (antibody, V domains shown) VH: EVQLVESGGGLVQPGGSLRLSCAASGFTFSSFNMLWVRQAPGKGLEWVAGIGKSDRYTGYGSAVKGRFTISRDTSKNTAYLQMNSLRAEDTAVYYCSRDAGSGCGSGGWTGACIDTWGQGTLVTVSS VL: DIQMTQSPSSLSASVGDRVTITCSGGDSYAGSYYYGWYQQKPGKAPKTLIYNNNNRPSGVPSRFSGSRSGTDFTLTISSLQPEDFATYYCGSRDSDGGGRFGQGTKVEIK", "2.78e-06"]
]}

[in] Requested field: koff. Item: DA10 (antibody, V domains shown) VH: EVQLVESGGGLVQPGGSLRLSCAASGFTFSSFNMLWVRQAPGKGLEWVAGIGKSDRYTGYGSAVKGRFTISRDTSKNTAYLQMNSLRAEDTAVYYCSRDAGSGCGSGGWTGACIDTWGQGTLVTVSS VL: DIQMTQSPSSLSASVGDRVTITCSGGDSYAGSYYYGWYQQKPGKAPKTLIYNNNNRPSGVPSRFSGSRSGTDFTLTISSLQPEDFATYYCGSRDSSYVGIFGQGTKVEIK
[out] 1.6e-05
